Every entry's value here was drawn from paper PMC4336329.

- tgt: human ether-à-go-go-related gene (hERG) potassium channel (human, UniProt Q12809)
- Sequence (Q12809 whole entry, looked up): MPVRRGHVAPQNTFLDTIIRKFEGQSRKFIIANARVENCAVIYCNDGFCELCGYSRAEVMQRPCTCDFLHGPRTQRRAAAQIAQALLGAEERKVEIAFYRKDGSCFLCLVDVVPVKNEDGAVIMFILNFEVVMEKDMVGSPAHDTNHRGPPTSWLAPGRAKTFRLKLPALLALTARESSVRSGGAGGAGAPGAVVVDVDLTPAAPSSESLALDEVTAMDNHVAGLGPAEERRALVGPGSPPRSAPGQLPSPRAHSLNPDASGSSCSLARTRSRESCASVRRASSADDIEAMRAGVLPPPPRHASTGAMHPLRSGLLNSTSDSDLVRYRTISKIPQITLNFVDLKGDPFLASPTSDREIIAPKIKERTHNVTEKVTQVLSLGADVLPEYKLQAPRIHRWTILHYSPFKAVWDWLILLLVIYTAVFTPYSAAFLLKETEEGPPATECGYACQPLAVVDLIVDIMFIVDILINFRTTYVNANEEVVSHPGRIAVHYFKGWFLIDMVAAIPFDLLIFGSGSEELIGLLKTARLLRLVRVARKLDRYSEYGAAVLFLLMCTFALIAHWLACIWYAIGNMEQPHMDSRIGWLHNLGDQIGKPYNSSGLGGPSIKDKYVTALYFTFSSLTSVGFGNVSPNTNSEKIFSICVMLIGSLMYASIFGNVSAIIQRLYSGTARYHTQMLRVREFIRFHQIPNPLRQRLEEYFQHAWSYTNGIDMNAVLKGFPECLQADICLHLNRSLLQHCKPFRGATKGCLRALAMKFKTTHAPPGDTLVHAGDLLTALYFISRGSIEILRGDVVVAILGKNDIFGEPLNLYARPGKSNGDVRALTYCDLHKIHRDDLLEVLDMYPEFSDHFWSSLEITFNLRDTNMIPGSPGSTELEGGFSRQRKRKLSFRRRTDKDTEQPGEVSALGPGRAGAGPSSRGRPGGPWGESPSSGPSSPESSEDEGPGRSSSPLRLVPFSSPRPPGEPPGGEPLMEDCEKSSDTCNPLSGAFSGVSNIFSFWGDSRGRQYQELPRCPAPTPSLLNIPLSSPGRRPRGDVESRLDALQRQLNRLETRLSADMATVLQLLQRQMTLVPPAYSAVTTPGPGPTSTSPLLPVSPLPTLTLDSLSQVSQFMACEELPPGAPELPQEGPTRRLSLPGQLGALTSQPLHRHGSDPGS
- test: primary screen, population patch clamp on CHO cells stably expressing hERG; higher = less effect of the substance;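 further: peak tail current of the secondary pulse compared with the same well before compound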
In all, about 310,000 compounds went through this assay and about 14,000 (4.5%) showed an effect of 50% or more. Effects have a minus sign here. What follows is part of a selection rich in strong results, with near analogues and random picks from the rest.
assay_readout: hERG current change (%, negative = inhibition) at 10uM (%)

| structure_string | measurement |
| --- | --- |
| COc1ccc(C(=S)N2CCCC2)cc1OC | 2.36 |
| CNC(=O)C1CCN(S(=O)(=O)c2c(C)noc2/C=C/c2ccccc2F)CC1 | 11.4 |
| Cc1noc(/C=C/c2ccccc2F)c1S(=O)(=O)N1CCC(C(=O)N2CCN(C)CC2)CC1 | -19.5 |
| CCCc1nc(SCC(=O)Nc2cc(C)on2)c2c(=O)n(C)c(=O)n(C)c2n1 | -2.26 |
| Cc1noc(C)c1S(=O)(=O)N1CCCN(C(=O)/C=C/c2ccccc2F)CC1 | -70.9 |

---

- tgt: human ether-à-go-go-related gene (hERG) potassium channel (human, UniProt Q12809)
- test: primary screen, population patch clamp on CHO cells stably expressing hERG; higher = less effect of the substance
- Protocol: Briefly, Chinese hamster ovary (CHO) cells stably expressing the hERG channel were dislodged from tissue culture flasks and dispensed into PPC plates. […] During the recording, background leak currents were estimated by a 100 ms step to -80 mV from an initial holding potential of -70 mV and subtracted from the subsequent current measurement. The campaign was conducted in two phases using slight differences in recording protocol. […]
Hit rate of the full screen: of about 310,000 compounds, about 14,000 (4.5%) showed an effect of 50% or more. The effect is printed as a negative number. Many of the other results were omitted from the sample, so strong results are more common in it than they were.
Use -40% as the dividing line for hERG current change (%, negative = inhibition) at 10uM, with the line itself on the Fulfilled side and lower values as Not fulfilled.

| molecule | assigned_label |
| --- | --- |
| C/C(=N\OCC(=O)NC12CC3CC(CC(C3)C1)C2)c1cc2ccccc2o1 | Fulfilled |
| Cc1ccc(S(=O)(=O)N2CCC(n3nnc4cc(C)ccc43)CC2)cc1 | Fulfilled |
| CCc1cccc(CC)c1NC(=O)C1CCN(C(=O)c2ccco2)CC1 | Fulfilled |
| Cc1ccc(C(=O)CCC(=O)N2CCN(c3ccc(F)cc3)CC2)cc1 | Fulfilled |
| O=C1CC(N2CCN(c3ccccn3)CC2)C(=O)N1CC(c1ccccc1)c1ccccc1 (stereo not shown) | Not fulfilled |
| CC(=O)N1CCN(C(=O)c2ccc(-c3ccccc3Cl)o2)CC1 | Fulfilled |
| CC(=O)N1CCN(c2ccc(NC(=O)c3cccc(Cl)c3)cc2)CC1 | Fulfilled |
| CCCCOc1ccc(C(=O)NCC(=O)N(C)CC(=O)Nc2ccc(N3CCOCC3)cc2)cc1 | Fulfilled |
| O=C(c1cc(-c2ccc(Cl)cc2Cl)on1)N1CCN(C(=O)c2ccco2)CC1 | Not fulfilled |
| COc1ccc(CC(=O)NCC2CCCN(Cc3ccc(OC)cc3F)C2)cc1 (stereo not shown) | Fulfilled |
| COc1ccc(CN2CCCC(CNC(=O)c3ccc(F)cc3)C2)c(F)c1 (stereo not shown) | Not fulfilled |
| Cc1ccc(C)c(CN2CCC(n3nnc4cc(F)ccc43)CC2)c1 | Fulfilled |
| O=C(c1cc(-c2ccccc2Cl)on1)N1CCN(C(=O)c2ccco2)CC1 | Not fulfilled |
| Cn1cc(CN2CCC(n3nccc3NC(=O)Cc3ccccc3)CC2)cn1 | Not fulfilled |
| Cc1ccc(NC(=O)CCc2nnc(SCC(=O)Nc3ccccc3C)n2C)cc1Cl | Fulfilled |
| CC(C)NCC(O)c1ccc(C2CCCC2)cc1.O=C(O)/C=C\C(=O)O (stereo not shown) | Fulfilled |
| C/C(N)=C(/C#N)C(=O)CSc1nc2cc(Cl)ccc2c(=O)n1Cc1ccco1 | Fulfilled |
| Cc1nc(SCc2c(Cl)cccc2Cl)nc(OC(=O)N(C)C)c1C | Fulfilled |
| O=C(CC(c1ccccc1)c1ccccc1)N1CCN(c2ccccn2)CC1 | Not fulfilled |
| Cc1ccc(Cn2nnnc2CN2CCC(n3nnc4ccccc43)CC2)cc1.Cl | Not fulfilled |
| O=C(c1ccco1)N1CCN(C(=O)c2ccc(-c3ccccc3Cl)o2)CC1 | Not fulfilled |
| CCOc1ccccc1CN1CCCC(CNC(=O)Cc2ccc(OC)cc2)C1 (stereo not shown) | Fulfilled |
| COc1ccc(-c2nnnn2C)cc1S(=O)(=O)NCc1ccccc1 | Fulfilled |
| N/C(=N/[N+](=O)[O-])N1CCN(C(=O)Oc2ccc([N+](=O)[O-])cc2)CC1 | Fulfilled |
| O=C(CCC(=O)N1CCN(c2ccc(F)cc2)CC1)c1ccc(F)cc1 | Not fulfilled |
| O=C(c1ccco1)N1CCN(C(=O)c2ccc(-c3ccc(Cl)cc3)o2)CC1 | Not fulfilled |
| COC(=O)c1ccc(C(=O)N2CCCC(CNC(=O)c3ccc(F)cc3)C2)cc1 (stereo not shown) | Fulfilled |
| COc1ccc(C(=O)N2CCCC(CNC(=O)c3ccc(F)cc3)C2)cc1OC (stereo not shown) | Fulfilled |
| O=C(c1cc(-c2ccc(Cl)cc2Cl)on1)N1CCCC1 | Fulfilled |
| O=C(O)CCC(=O)N1CCN(c2ccccn2)CC1 | Fulfilled |
| O=C1c2ccccc2-c2c1cccc2C(=O)N1CCCCCC1 | Fulfilled |
| Cc1ccc(Cn2nnnc2CN2CCC(n3nnc4cc(C)ccc43)CC2)cc1 | Not fulfilled |
| CN(C)CC(CCCCC(CN(C)C)C(=O)c1ccccc1)C(=O)c1ccccc1 (stereo not shown) | Fulfilled |
| CCOc1cc(CN2CCCC(CNC(=O)c3ccc(F)cc3)C2)ccc1OC (stereo not shown) | Not fulfilled |
| O=C1c2ccccc2-c2c1cccc2C(=O)N1CCN(C(=O)c2ccco2)CC1 | Not fulfilled |
| CCCN(CC1CC1)CC(O)c1ccccc1.O=C(O)C(=O)O (stereo not shown) | Fulfilled |
| O=C(CCn1nc(-c2ccc(Cl)cc2)ccc1=O)N1CCN(c2ccccc2)CC1 | Not fulfilled |
| CCOC(=O)C1=C(COC(=O)CCOc2ccccc2C)NC(=O)NC1C (stereo not shown) | Fulfilled |
| O=C(Oc1cccc([N+](=O)[O-])c1)N1CCCCC1 | Fulfilled |
| Cc1ccc(S(=O)(=O)Nc2ccc3cn[nH]c3c2)c(C)c1 | Fulfilled |
